ASSAY_METHOD_TEXT: Stability in rat skin homogenates assessed as compound remain after 6 hrs
Assay type: ADME, tissue-based, Zone of skin
CONDITION_INFO: read-out: Stability
Residues, ends and D or L forms follow the SMILES beside them. *: point of attachment. X1 = O=C(CCC(=O)*)OCC(O)C1OC(=O)C(O)=C1O
METRIC: remaining at 6 h

Exercise: So what does the record say about remaining at 6 h for C[C@@H](O)[C@H](NC(=O)[C@H](CCCCN)NC(=O)CCC(=O)OCC(O)C1OC(=O)C(O)=C1O)C(=O)N[C@H](C(=O)N[C@@H](CCCCN)C(=O)N[C@@H](CO)C(=O)O)[C@@H](C)O (stereo partly specified) (X1-KTTKS-OH) ?
Solution: < 10%
